Sourced from ChEMBL document CHEMBL4368923

Please respond with reported selectivity ratio for every item in the list.
test: Selectivity index, ratio of CC50 for human MT4 cells to EC50 for HIV1 3B infected in human MT4 cells; details: MT4 cells
One number for each entry.

Reported selectivity ratio for `Cc1cc(C#N)cc(C)c1Oc1ccnc(Nc2ccc(CN3CCC(NS(N)(=O)=O)CC3)cc2)n1` was 40

Reported selectivity ratio for `Cc1cc(C#N)cc(C)c1Oc1ccnc(Nc2ccc(CNC3CCN(C(=O)OC(C)(C)C)CC3)cc2)n1` was 19

Reported selectivity ratio for `Cc1cc(/C=C/C#N)cc(C)c1Oc1ccnc(Nc2ccc(CN3CCN(C(=O)OC(C)(C)C)CC3)cc2)n1` was 209

Reported selectivity ratio for `Cc1cc(/C=C/C#N)cc(C)c1Oc1ccnc(Nc2ccc(CN3CCC(NS(C)(=O)=O)CC3)cc2)n1` was 1020

Reported selectivity ratio for `Cc1cc(C#N)cc(C)c1Oc1cc(Cl)nc(Nc2ccc(CN3CCOCC3)cc2)c1` was 7

Please turn your attention to the following entry.
Reported selectivity ratio for `Cc1cc(C#N)cc(C)c1Oc1ccnc(Nc2ccc(CN3CCC(NC(=O)OC(C)(C)C)CC3)cc2)n1` was 21
